experiment: Moisture resistance of the printed images; type: physicochemical; set-up: key: ∘: No bleeding; Δ: Slight bleeding; x: Notable bleeding; conditions: printed images at 50° C. and 90% RH for 168 h; bleeding judged by bare eyes

MOLECULE | Water resistance of ink printed images
O=C(c1cccc(S(=O)(=O)O)c1)c1c2c3c(c(Nc4c(S(=O)(=O)O)cc(S(=O)(=O)CCC5C(=O)c6ccccc6C5=O)cc4S(=O)(=O)O)cc(S(=O)(=O)O)c3[nH]c1=O)C(=O)c1ccccc1-2 | ∘
O=C(O)CCCS(=O)(=O)c1cc(S(=O)(=O)O)c(Nc2cc(S(=O)(=O)O)c3[nH]c(=O)c(C(=O)c4cccc(S(=O)(=O)O)c4)c4c3c2C(=O)c2ccccc2-4)c(S(=O)(=O)O)c1 | ∘
O=C(c1cccc(S(=O)(=O)O)c1)c1c2c3c(c(Nc4c(S(=O)(=O)O)cc(S(=O)(=O)CCC5C(=O)c6ccc(S(=O)(=O)O)cc6C5=O)cc4S(=O)(=O)O)cc(S(=O)(=O)O)c3[nH]c1=O)C(=O)c1ccccc1-2 (centres unmarked) | ∘
O=S(=O)([O-])c1cc(Nc2nc(Nc3ccc(/C=C/c4ccc(Nc5nc(Nc6cc(S(=O)(=O)[O-])cc7cc(S(=O)(=O)[O-])c(N=Nc8ccccc8)c(O)c67)nc(N6CCOCC6)n5)cc4S(=O)(=O)[O-])c(S(=O)(=O)[O-])c3)nc(N3CCOCC3)n2)c2c(O)c(N=Nc3ccccc3)c(S(=O)(=O)[O-])cc2c1.[Na+].[Na+].[Na+].[Na+].[Na+].[Na+] [C.I. direct red 227, reference compound] | Δ
O=C(CCCS(=O)(=O)c1cc(S(=O)(=O)O)c(Nc2cc(S(=O)(=O)O)c3[nH]c(=O)c(C(=O)c4cccc(S(=O)(=O)O)c4)c4c3c2C(=O)c2ccccc2-4)c(S(=O)(=O)O)c1)c1cccc(S(=O)(=O)O)c1 | ∘

----------
assay: Evaluation of long-term stability of the dye in aqueous solvent system; format: physicochemical; set-up: key: ∘: No precipitation; Δ: Slight precipitation; x: Notable precipitation; conditions: 20 parts dye, 70 parts water, 10 parts ethylene glycol; 50° C. for 7d, then 0° C. for 7d; filtered, precipitation graded
MEASURED PROPERTY: Long-term stability of the dye in aqueous solvent system

MOLECULE | VALUE OBSERVED
O=C(c1cccc(S(=O)(=O)O)c1)c1c2c3c(c(Nc4c(S(=O)(=O)O)cc(S(=O)(=O)CCC5C(=O)c6ccccc6C5=O)cc4S(=O)(=O)O)cc(S(=O)(=O)O)c3[nH]c1=O)C(=O)c1ccccc1-2 [Dp8] | ∘
O=C(c1cccc(S(=O)(=O)O)c1)c1c2c3c(c(Nc4c(S(=O)(=O)O)cc(S(=O)(=O)CCC5C(=O)c6ccc(S(=O)(=O)O)cc6C5=O)cc4S(=O)(=O)O)cc(S(=O)(=O)O)c3[nH]c1=O)C(=O)c1ccccc1-2 (centres unmarked) [Dp10] | ∘
O=S(=O)([O-])c1cc(Nc2nc(Nc3ccc(/C=C/c4ccc(Nc5nc(Nc6cc(S(=O)(=O)[O-])cc7cc(S(=O)(=O)[O-])c(N=Nc8ccccc8)c(O)c67)nc(N6CCOCC6)n5)cc4S(=O)(=O)[O-])c(S(=O)(=O)[O-])c3)nc(N3CCOCC3)n2)c2c(O)c(N=Nc3ccccc3)c(S(=O)(=O)[O-])cc2c1.[Na+].[Na+].[Na+].[Na+].[Na+].[Na+] [C.I. direct red 227, reference compound] | Δ
O=C(CCCS(=O)(=O)c1cc(S(=O)(=O)O)c(Nc2cc(S(=O)(=O)O)c3[nH]c(=O)c(C(=O)c4cccc(S(=O)(=O)O)c4)c4c3c2C(=O)c2ccccc2-4)c(S(=O)(=O)O)c1)c1cccc(S(=O)(=O)O)c1 [Dp4] | ∘
O=C(O)CCCS(=O)(=O)c1cc(S(=O)(=O)O)c(Nc2cc(S(=O)(=O)O)c3[nH]c(=O)c(C(=O)c4cccc(S(=O)(=O)O)c4)c4c3c2C(=O)c2ccccc2-4)c(S(=O)(=O)O)c1 [Dp2] | ∘

Ref: patent US8734580B2
